Value source: paper PMC9482650

Each entry below carries its recorded pKd.
Target: Inadl_3, Q8NI35
Sequence (Q8NI35 359-469): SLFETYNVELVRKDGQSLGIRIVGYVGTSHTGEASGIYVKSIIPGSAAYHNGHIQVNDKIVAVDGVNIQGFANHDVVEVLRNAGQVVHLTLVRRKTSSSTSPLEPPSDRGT
Test: holdup assay
Design: key: below the threshold = too weak to quantify, mostly under pKd 3.1 to 4
Settings: plain residues with an end cap or a label only (N-terminal biotin on a linker: ttds)
measured endpoint: pKd

SSLQSLETSV [ATP2B4, P23634] | 3.56
RHTTSTETAV [HPV30-E6, P36809] | 3.77
